B1: TPR 5TU (parent)
chain: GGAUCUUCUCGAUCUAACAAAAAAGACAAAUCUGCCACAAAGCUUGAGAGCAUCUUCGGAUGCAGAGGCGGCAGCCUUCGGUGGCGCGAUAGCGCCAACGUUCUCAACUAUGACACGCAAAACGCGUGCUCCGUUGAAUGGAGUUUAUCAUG

# Variants of: B1
# EXPERIMENTAL PROTOCOL: polymerase ribozyme fitness, log enrichment relative to wild type (log ratio); higher = more active; in vitro selection for triplet polymerase activity
Fewer inactive variants are shown than the library holds.
// values below are reported polymerase ribozyme fitness (log ratio)
Hey, just send me the number, nothing else.

# annotated cases, reported polymerase ribozyme fitness (log ratio) shown
alteration="A49G U53C A98U A121G" readout_value=-1.87
alteration="G50A U56A G86A" readout_value=-3.11

**Q:** Consider the variant A17U C54G C96U . State its measured polymerase ribozyme fitness (log ratio).
**A:** -2.08

**Q:** Consider the variant C54A G94C G141A . State its measured polymerase ribozyme fitness (log ratio).
**A:** -3.13

**Q:** Consider the variant C18G A21C A52G G84U G133C U134C . State its measured polymerase ribozyme fitness (log ratio).
**A:** -4.07

**Q:** Consider the variant C5A C99U . State its measured polymerase ribozyme fitness (log ratio).
**A:** -0.267

**Q:** Consider the variant G92A C103A G126A . State its measured polymerase ribozyme fitness (log ratio).
**A:** -3.74

**Q:** Consider the variant C85U C99U . State its measured polymerase ribozyme fitness (log ratio).
**A:** -2.35

**Q:** Consider the variant G46U G83U A119U C123A U145C . State its measured polymerase ribozyme fitness (log ratio).
**A:** -3.34

**Q:** Consider the variant A52G G58U . State its measured polymerase ribozyme fitness (log ratio).
**A:** -0.0148

**Q:** Consider the variant C38A C76U . State its measured polymerase ribozyme fitness (log ratio).
**A:** -0.21

**Q:** Consider the variant C8U G141U . State its measured polymerase ribozyme fitness (log ratio).
**A:** -2.76

**Q:** Consider the variant A19G G59U C85U C95A . State its measured polymerase ribozyme fitness (log ratio).
**A:** -1.78

**Q:** Consider the variant C76U C99G . State its measured polymerase ribozyme fitness (log ratio).
**A:** -0.789

**Q:** Consider the variant G11A C85U G92C G143A . State its measured polymerase ribozyme fitness (log ratio).
**A:** -4.01

**Q:** Consider the variant A52C G70A . State its measured polymerase ribozyme fitness (log ratio).
**A:** -3.92

**Q:** Consider the variant A19U C114G . State its measured polymerase ribozyme fitness (log ratio).
**A:** -3.52

**Q:** Consider the variant G50A U55G A97G U102G . State its measured polymerase ribozyme fitness (log ratio).
**A:** -3.43

**Q:** Consider the variant A37C A41U A52C C118A . State its measured polymerase ribozyme fitness (log ratio).
**A:** -3.42

**Q:** Consider the variant A12U C54A . State its measured polymerase ribozyme fitness (log ratio).
**A:** -1.78

**Q:** Consider the variant C35G G88A C95U U101A G141C . State its measured polymerase ribozyme fitness (log ratio).
**A:** -4.12
